Source: ChEMBL document CHEMBL4823272

# System Name: Amyloid-beta precursor protein (Homo sapiens, UniProt P05067)
# Sequence (P05067 whole entry): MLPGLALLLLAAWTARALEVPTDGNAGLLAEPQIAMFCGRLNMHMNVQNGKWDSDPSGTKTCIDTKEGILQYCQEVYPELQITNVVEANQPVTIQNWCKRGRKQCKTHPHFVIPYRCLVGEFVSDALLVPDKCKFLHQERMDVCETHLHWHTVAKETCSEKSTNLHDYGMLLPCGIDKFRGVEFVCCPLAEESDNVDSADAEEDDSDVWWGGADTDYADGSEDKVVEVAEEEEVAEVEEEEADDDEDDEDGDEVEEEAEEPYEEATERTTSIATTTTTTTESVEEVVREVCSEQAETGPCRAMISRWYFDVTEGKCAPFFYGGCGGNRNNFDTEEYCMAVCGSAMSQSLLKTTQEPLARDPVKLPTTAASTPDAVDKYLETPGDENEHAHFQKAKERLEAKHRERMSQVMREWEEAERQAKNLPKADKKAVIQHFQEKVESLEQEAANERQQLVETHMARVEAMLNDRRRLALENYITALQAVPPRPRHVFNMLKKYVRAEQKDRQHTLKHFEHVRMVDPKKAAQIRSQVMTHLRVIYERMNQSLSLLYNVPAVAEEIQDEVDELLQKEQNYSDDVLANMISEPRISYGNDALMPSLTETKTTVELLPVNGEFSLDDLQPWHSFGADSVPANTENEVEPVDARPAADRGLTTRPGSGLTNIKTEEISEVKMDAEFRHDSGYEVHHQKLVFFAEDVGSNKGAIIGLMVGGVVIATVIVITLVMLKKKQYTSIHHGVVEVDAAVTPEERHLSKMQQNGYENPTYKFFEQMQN
# Experimental Details: Inhibition of human amyloid beta (1 to 40) fibrillization at 100 uM measured every 15 mins by Thioflavin-T fluorescence assay relative to control
The source made the active and inactive calls. The calls are words filed in the database; no cut-off is given here.
Measurement Name: inhibition

compound=COc1ccc(CNS(=O)(=O)c2cc(C(=O)O)c(NCc3ccco3)cc2Cl)cc1 measurement_name=inhibition reported_value=27.8%
compound=Cc1ccc(CNS(=O)(=O)c2cc(C(=O)O)c(NCc3ccco3)cc2Cl)cc1 measurement_name=inhibition reported_value=inactive
compound=CCNS(=O)(=O)c1cc(C(=O)O)c(NCc2ccco2)cc1Cl measurement_name=inhibition reported_value=21.3%
compound=CNS(=O)(=O)c1cc(C(N)=O)c(NCc2ccco2)cc1Cl measurement_name=inhibition reported_value=inactive
compound=CNC(=O)c1cc(S(=O)(=O)NC)c(Cl)cc1NCc1ccco1 measurement_name=inhibition reported_value=inactive
compound="OC(c1ccc(Cl)cc1NCc1ccco1)C(F)(F)F (stereo not given)" measurement_name=inhibition reported_value=60.7%

Exercise: Fill in the blank: the reported inhibition of `CNS(=O)(=O)c1cc(CO)c(NCc2ccco2)cc1Cl` is ____.
Key: 15%

Exercise: Now try `O=C(O)c1ccc(F)cc1NCc1ccco1` .
Key: 12.4%

Exercise: Now try `CCCCCCNS(=O)(=O)c1cc(C(=O)O)c(NCc2ccco2)cc1Cl` .
Key: 39.2%

Exercise: Now try CNS(=O)(=O)c1cc(C(=O)O)c(NCC2CCCO2)cc1Cl (stereo not given) .
Key: 17.5%

---

# System Name: UniProtKB P05067
# Experimental Details: Inhibition of human amyloid beta (1 to 40) fibrillization at 100 uM measured every 15 mins by Thioflavin-T fluorescence assay relative to control
Active and inactive are the calls of the source. The rule behind the calls is not given here.
Measurement Name: inhibition

compound="CC(NS(=O)(=O)c1cc(C(=O)O)c(NCc2ccco2)cc1Cl)c1ccccc1 (stereo not drawn)" reported_value=17.6%
compound="NS(=O)(=O)c1cc(C(=O)O)c(NCc2ccco2)cc1Cl [FUROSEMIDE]" reported_value=8.56%
compound=CN(Cc1ccccc1)S(=O)(=O)c1cc(C(=O)O)c(NCc2ccco2)cc1Cl reported_value=inactive
compound=CNS(=O)(=O)c1cc(C(=O)N(C)C)c(NCc2ccco2)cc1Cl reported_value=25.2%

Exercise: Entry `CN(C)S(=O)(=O)c1cc(C(=O)O)c(NCc2ccco2)cc1Cl` , system UniProtKB P05067: what inhibition was measured?
Key: inactive

Exercise: Now try `CNS(=O)(=O)c1cc(C(=O)OC)c(NCc2ccco2)cc1Cl` .
Key: 27.1%

Exercise: Now try `O=C(O)c1cc(S(=O)(=O)NC2CC2)c(Cl)cc1NCc1ccco1` .
Key: 29.2%

Exercise: Now try OC(c1ccc(Cl)cc1NCc1cscn1)C(F)(F)F (stereo not drawn) .
Key: 27.9%

Exercise: Now try `O=C(O)c1ccc(Cl)cc1NCc1ccco1` .
Key: 20.2%

Exercise: Now try `O=C(Nc1ccccc1)c1cc(C(=O)O)c(NCc2ccco2)cc1Cl` .
Key: 29.4%

Exercise: Now try `O=C(O)c1cc(S(=O)(=O)N2CCCCC2)c(Cl)cc1NCc1ccco1` .
Key: 19.1%

Exercise: Now try `CNS(=O)(=O)c1cc(C(=O)O)c(NCc2ccco2)cc1Cl` .
Key: inactive

Exercise: Now try OC(c1ccc(Br)cc1NCc1cscn1)C(F)(F)F (stereo not drawn) .
Key: 33%
